- testName: gradient 5% acetonitrile 3 min, to 50% in 2 min, to 85% in 15 min, held 3 min, 100 µL/min
- conditionNotes: column: Zorbax Extend-C18 2.1 x 50 mm; eluents: water / acetonitrile, 0.1% formic acid
experimentalReadout: RP-LC retention time (s)

// solved cases for RP-LC retention time follow
{"columns": ["smiles", "RP-LC retention time (s)"],
 "data": [
  ["CCOc1ccc(CC(=O)N2C[C@@H]3C[C@H]2C[C@@H]3NS(=O)(=O)c2cccs2)cc1", 791],
  ["CCc1nc2cc(-c3noc(-c4cncc(Br)c4)n3)ccc2o1", 1160],
  ["Cc1nc(-c2cc(S(=O)(=O)N(C)C3CCCCC3)c(C)s2)sc1C", 1320],
  ["Cc1cc(C)cc(NC(=O)Cc2c(C(=O)O)c(C)cn2C)c1", 739],
  ["Cc1cccc(N2CCN(c3ncc(C(=O)O)c(C)n3)CC2)c1", 945]
]}

1 = O=S(=O)(c1cccc2cccnc12)N1CCc2nc(-c3ccc(F)cc3)ncc2C1
2 = O=C(Nc1ccc(F)cc1F)N1CCC(N2CCN(Cc3ccccc3)C(=O)C2=O)CC1
Qu. // task: argmin of RP-LC retention time over [ 1 , 2 ] Which one? Tell me its label.
Ans. 2

###

- testName: gradient 5% acetonitrile 3 min, to 50% in 2 min, to 85% in 15 min, held 3 min, 100 µL/min
- conditionNotes: column: Zorbax Extend-C18 2.1 x 50 mm; eluents: water / acetonitrile, 0.1% formic acid
experimentalReadout: RP-LC retention time (s)

{"columns": ["compound", "RP-LC retention time / s"],
 "data": [
  ["Cc1ccc(-c2ccc(-n3nc(C)c(S(=O)(=O)N4CCN(C)CC4)c3C)nn2)cc1", 695],
  ["O=C(NCc1ccccc1)C1=C2CCCN2c2ccccc2S1(=O)=O", 810],
  ["CCOC(=O)c1nc(N2CCN(C3CCCCC3)CC2)c2ccccc2n1", 614]
]}

I = O=C(Nc1ccc(F)cc1F)N1CCC(N2CCN(Cc3ccc(F)cc3)C2=O)CC1
II = CCOc1nc2ccccc2nc1N1CCCC(C(=O)Nc2ccc(Cl)cc2C)C1 (stereo not given)
Qu. Returns the identifier with the smallest measured RP-LC retention time among I and II . Label of pick, please.
Ans. I

###

- testName: gradient 5% acetonitrile 3 min, to 50% in 2 min, to 85% in 15 min, held 3 min, 100 µL/min
- conditionNotes: column: Zorbax Extend-C18 2.1 x 50 mm; eluents: water / acetonitrile, 0.1% formic acid
experimentalReadout: RP-LC retention time (s)

Here are 10 compounds together with their reported answers.
{"columns": ["compound", "RP-LC retention time / s"],
 "data": [
  ["O=C(Cn1nc2c3cc(-c4ccc(F)cc4)nn3ccn2c1=O)N1CCN(c2ccc(F)cc2)CC1", 920],
  ["COc1ccc(Cl)cc1NC(=O)Cn1c(=O)n(-c2ccc(F)cc2)c(=O)c2c1cc(C)n2C", 938],
  ["CC(C)Cn1nc2n(c1=O)CCN(S(=O)(=O)c1cc(F)ccc1F)CC2", 802],
  ["CCc1nn2c(CNC(=O)c3ccn(CC)n3)c(-c3ccccc3)nc2s1", 822],
  ["COc1cccc(CNC(=O)C2CCN(S(=O)(=O)c3ccc4c(c3)CCCC(=O)N4)CC2)c1", 713],
  ["Cc1ccc(CNC(=O)C2(C)Cn3nc(C(=O)NC4CCCCC4)cc3C(=O)N2C)cc1 (centres undefined)", 800],
  ["Cc1ccc(CNC(=O)C2CCN(S(=O)(=O)c3cc(C(=O)N(C)C)cs3)CC2)cc1", 762],
  ["O=C(c1ccco1)N1CCCC(c2nnc(-c3cccs3)o2)C1 (centres undefined)", 690],
  ["COc1ccc(-c2nc(Cc3noc(-c4ccccc4)n3)c(C)o2)cc1", 1100],
  ["Cc1cc(Cl)ccc1S(=O)(=O)N1CCC(F)(c2nc(CC(C)C)no2)CC1", 1260]
]}

1 = O=C(c1noc2c1CCCC2)N1CCN(c2ccccn2)CC1
2 = COc1cc(OC)c(NC(=O)c2ncoc2-c2ccc(OC)c(OC)c2)cc1Cl
Qu. I'd appreciate it if you could identify which of 1 and 2 has the greater RP-LC retention time. Lab log: write the label of the selected item as the result.
Ans. 2
(2: 1140 s, 1: 613 s)

a = Nc1ccc(C(=O)Nc2cccc(N)c2)cc1
b = CCCCCCOC(=O)[C@@]1(O)CC2O[C@]1(C)n1c3ccccc3c3c4c(c5c6ccccc6n2c5c31)C(=O)NC4
Qu. Field: entry with larger RP-LC retention time (options a / b ). // respond with label for picked entry
Ans. b

###

- testName: gradient 5% acetonitrile 3 min, to 50% in 2 min, to 85% in 15 min, held 3 min, 100 µL/min
- conditionNotes: column: Zorbax Extend-C18 2.1 x 50 mm; eluents: water / acetonitrile, 0.1% formic acid
experimentalReadout: RP-LC retention time (s)

Answered cases to consult:
{"columns": ["compound", "readoutNumber"],
 "data": [
  ["COc1ccc(NC(=O)Cn2c(=O)n(-c3ccc(F)cc3)c(=O)c3c2cc(C)n3C)c(OC)c1", 832],
  ["Cn1ncc2c3ccccc3n(CC(=O)NCCN3CCOCC3)c2c1=O", 592],
  ["CN(C)c1ccc(CNC(=O)CN2c3ccccc3NC3=C(C(=O)CCC3)C2c2ccco2)cc1 (stereo not given)", 628],
  ["Cc1ccc(C2=NC3(CCN(C(=O)c4c[nH]c5ccccc45)CC3)ON2)cc1", 769],
  ["O=C(NCc1ccc(Cl)cc1)C1CCN(C(=O)C2Sc3ccccc3NC2=O)CC1 (stereo not given)", 765],
  ["COc1ccc(S(=O)Cc2ccc(C(=O)NCCN(C)C)o2)cc1 (stereo not given)", 530],
  ["Cn1nc(N2CCC(NC(=O)CCn3cnnn3)CC2)ccc1=O", 566],
  ["O=C(Nc1cc(F)cc(F)c1)Nc1cccc(-c2nccnc2N2CCOCC2)c1", 940],
  ["Cc1nc2ccc3nc(NC(=O)C4CCN(S(C)(=O)=O)CC4)sc3c2s1", 709],
  ["CN(CCc1noc(-c2ccc(C(=O)N3CCCC3)cc2)n1)C(=O)COc1ccc(Cl)cc1", 808]
]}

1 = CC1CCC(C(=O)Nc2ccc3c(c2)n(C)c(=O)c(=O)n3C)CC1 (stereo not given)
2 = CC(C)NC(=O)C1Cc2cc(C(F)(F)F)ccc2N2CCN(c3ccccc3)CC12 (stereo not given)
Qu. Endpoint returns the identifier whose RP-LC retention time is numerically larger, either 1 or 2 . Response format: the label of the selected entry.
Ans. 2
(2: 1100 s, 1: 737 s)

a = Cc1ccc(NC(=O)Cn2c(C)nc3c(sc4nc(-c5ccccc5)ccc43)c2=O)cc1Cl
b = COc1cc(NC(=O)NCc2cccs2)ccc1N1CCCCC1=O
Qu. Kindly compare a with b and tell me which has the lower RP-LC retention time figure. Refer to your chosen entry by its label in the reply.
Ans. b

###

- testName: gradient 5% acetonitrile 3 min, to 50% in 2 min, to 85% in 15 min, held 3 min, 100 µL/min
- conditionNotes: column: Zorbax Extend-C18 2.1 x 50 mm; eluents: water / acetonitrile, 0.1% formic acid
experimentalReadout: RP-LC retention time (s)

Below are worked cases with known answers.
{"columns": ["molecule", "experimentalReadout", "readoutNumber"],
 "data": [
  ["O=C(Cn1nc2c3ccccc3ncn2c1=O)Nc1ccc2c(c1)OCO2", "RP-LC retention time", 665],
  ["Cc1cc(C)n(-c2ccc(C(=O)NCCCN3CCCC3=O)nn2)n1", "RP-LC retention time", 637],
  ["O=C(CN(CC1CCCO1)C(=O)c1ccc(Cl)cc1)N1CCNCC1 (stereo not given)", "RP-LC retention time", 605],
  ["CC(C)C1c2nccn2CCCN1C(=O)c1n[nH]c(=O)c2ccccc12 (stereo not given)", "RP-LC retention time", 569]
]}

a = COc1ccc(-c2cc3c(=O)n(Cc4nc(-c5ccccc5Br)no4)ncn3n2)cc1
b = Cn1c(C(=O)NCc2ccccc2Cl)cc2ccncc21
Qu. Identify the entry with the larger RP-LC retention time. Options: a and b Lab note: record the label of whichever item you select.
Ans. a

###

- testName: gradient 5% acetonitrile 3 min, to 50% in 2 min, to 85% in 15 min, held 3 min, 100 µL/min
- conditionNotes: column: Zorbax Extend-C18 2.1 x 50 mm; eluents: water / acetonitrile, 0.1% formic acid
experimentalReadout: RP-LC retention time (s)

{"columns": ["compound", "experimentalReadout", "readoutNumber"],
 "data": [
  ["CCC(=O)NCCc1csc(C2CCCN(C(=O)C3CCC3)C2)n1 (centres undefined)", "RP-LC retention time", 676],
  ["CC(NC(=O)c1ccc(CN2CCN(Cc3ccccc3)C(=O)C2=O)cc1)c1ccccc1 (centres undefined)", "RP-LC retention time", 812],
  ["O=C(NCC1CCN(C(=O)Oc2ccccc2)CC1)C1c2ccccc2Oc2ccccc21", "RP-LC retention time", 949]
]}

A = CCCN1CCn2cc(C(=O)NC(C)c3ccccc3)nc2C1 (centres undefined)
B = CCN(C(=O)CCc1ccccc1)c1nc(-c2ccccc2)cs1
Qu. Consider entries A and B . Which has the numerically lower RP-LC retention time? Selection: enter the item's label.
Ans. A
(A: 603 s, B: 1320 s)

A = O=C(Nc1ccc(Cn2cnc(C(=O)NCc3ccc(F)cc3)c2)cc1)c1cccc(F)c1
B = CC(C)Cc1ccc(S(=O)(=O)N2CCC(C(=O)NCc3csc(-c4ccccc4)n3)CC2)cc1
Qu. Return label of the item with the larger RP-LC retention time. Candidates: A , B . Reply briefly: the label of your chosen item.
Ans. B
